- assayed target: Cyclin Dependent Kinase 2/Cyclin E1 (CDK2-cycE1) (Homo sapiens)
- Construct: purchased ProQinase 0050-0055-1
- assay text: CDK2-cycE1 TR-FRET (LANCE) enzyme assay
- Type: biochemical
- assay context: Table O, fold selectivity, enzymatic CDK1 Ki over CDK2 Ki
Consider the following compounds and their measured FS CDK1/CDK2 readings.
Lab note: write the figure by itself, no unit.

{"compound": "COc1nc(C)ncc1Nc1cc([C@H]2CC[C@@H](OC(=O)NC(C)C)C2)[nH]n1 [Example 2Y]", "assayed target": "Cyclin Dependent Kinase 2/Cyclin E1 (CDK2-cycE1) (Homo sapiens)", "metric": "FS CDK1/CDK2", "observed value": 36}
{"compound": "Cc1nc(C(=O)N(C)C)ccc1Nc1cc([C@H]2CC[C@@H](OC(=O)NC3(C)CC3)C2)[nH]n1 [Example 7]", "assayed target": "Cyclin Dependent Kinase 2/Cyclin E1 (CDK2-cycE1) (Homo sapiens)", "metric": "FS CDK1/CDK2", "observed value": 64}
{"compound": "Cn1nc(Nc2cc([C@H]3CC[C@@H](OC(=O)NC(C)(C)C(F)F)C3)[nH]n2)ccc1=O [Example 5C]", "assayed target": "Cyclin Dependent Kinase 2/Cyclin E1 (CDK2-cycE1) (Homo sapiens)", "metric": "FS CDK1/CDK2", "observed value": 31}

# get_value(readout='FS CDK1/CDK2', item= O=C(NC12CC(C1)C2)O[C@@H]1CC[C@H](c2cc(Nc3ccc(CO)nc3)n[nH]2)C1 [Example 9I] ) 23

// next record COc1ccc(Nc2cc([C@H]3CC[C@@H](OC(=O)NC(C)C)C3)[nH]n2)nn1 [Example 2JJ] 16

// next record Cc1nccc(Nc2cc([C@H]3CC[C@@H](OC(=O)NC(C)C)C3)[nH]n2)n1 [Example 2O] 28

// next record Cc1nc(S(C)(=O)=O)ccc1Nc1cc([C@H]2CC[C@@H](OC(=O)NC(C)(C)C)C2)[nH]n1 [Example 4L] 33

// next record Cc1nc(C#N)ccc1Nc1cc([C@H]2CC[C@@H](OC(=O)NC(C)(C)C)C2)[nH]n1 [Example 10D] 134

// next record C[C@@H](NC(=O)O[C@@H]1CC[C@H](c2cc(Nc3cccnn3)n[nH]2)C1)C(F)(F)F (single isomer, unassigned) [Example 5B] 12

// next record CC(C)NC(=O)O[C@@H]1CC[C@H](c2cc(Nc3cncc(C(F)(F)F)n3)n[nH]2)C1 [Example 2R] 6.3

// next record Cc1cnc(Nc2cc([C@H]3CC[C@@H](OC(=O)NC(C)C)C3)[nH]n2)c(C)n1 [Example 2V] 39
